Please respond with reported Kd for every item in the list.
# system.name: T1, SARS-CoV-2 Receptor Binding Domain (RBD) protein (SARS-CoV-2, UniProt P0DTC2 319-541)
# T1 construct: also called Sars-Cov-2 (COV2)
# assay.procedure: SPR (Carterra LSA); scFv captured by anti-V5, RBD as analyte
Your answer should be a plain number; it is taken to be in nM.

Query: Can you look up the measured Kd of COVID19_P14_C01 (scFv, V domains shown) VH: QVQLVQSGAEVKKPGSSVKVSCKASGYTFSDFYLHWVRQAPGQGLEWMGGITPIFGTANYAQKFQGRVTITADESTSTAYMELSSLRSEDTAVYYCAMETVMGGMDVWGQGTLVTVSS VL: SSYVLTQPPSVSVAPGKTARITCGGNNIGSKSVHWYQQKPGQAPVLVIYYDSDRPSGIPERFSGSNSGNTATLTISRVEAGDEADYYCQVWDSSSDYVFGGGTKLTVLA for me?
Response: 12.1

Query: GET /values?readout=Kd&item= COVID19_P01_B08 (scFv, V domains shown) VH: QVQLVQSGAEVKKPGSSVKVSCKASGGTFSNFAITWVRQAPGQGLEWMGVINPGGGSTTYAQTFQGRVTITADESTSTAYMELSSLRSEDTAVYYCARDTVMGGMDVWGQGTLVTVSS VL: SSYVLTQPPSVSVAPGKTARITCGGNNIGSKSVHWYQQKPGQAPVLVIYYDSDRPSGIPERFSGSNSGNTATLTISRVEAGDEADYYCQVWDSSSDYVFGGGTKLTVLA
Response: 33.8
